Source: patent EP0063525A1

For each of the compounds below, state its variation de température T=4h.
Tested on: Souris
Experimental Protocol: antireserpine activity: reserpine hypothermia
Type: in vivo
Conditions: réserpine 5 mg/kg i.p. 17 h before; product i.p. 50 mg/kg

Look up variation de température T=4h: CN(C)CCCN1c2ccccc2C2ON=C(c3ccccc3)C2c2ccccc21 (centres unmarked) [compound 3]
+0,1

Look up variation de température T=4h: CN(C)CCCN1c2ccccc2C=Cc2ccccc21 [compound 21, reference compound]
+0,5

Look up variation de température T=4h: CC(CN(C)C)CN1c2ccccc2C2C(c3ccccc3)=NN(c3ccccc3)C2c2ccccc21 (centres unmarked) [compound 9]
+0,1

Look up variation de température T=4h: c1ccc(-c2nn(-c3ccccc3)c3c2-c2ccccc2Nc2ccccc2-3)cc1 [compound 12]
+0,4

Look up variation de température T=4h: CN(C)CCN1c2ccccc2C=Cc2ccccc21 [compound 20, reference compound]
+1

----------
Experimental Protocol: acute toxicity in the mouse, intraperitoneal
Format: in vivo, Souris
Conditions: mouse, in vivo, ip; voie intrapéritonéale, 400 mg/kg; read-out: Mortalité %
Assay Readout: mortality at 48 h (%)
Unit % implied. Number only.

Look up mortality at 48 h: "CN(C)CCN1c2ccccc2-c2c(-c3ccccc3)nn(-c3ccccc3)c2-c2ccccc21"
60

----------
For each of the compounds below, state its Mortalité en 1 heure.
Test system: souris femelles
Experimental Protocol: acute toxicity in the mouse, intraperitoneal
Type: in vivo
Conditions: voie intrapéritonéale, 100 mg/kg; dead mice of the group
The answer should be written as a number, with no unit following it.

Look up Mortalité en 1 heure: c1ccc(-c2noc3c2-c2ccccc2Nc2ccccc2-3)cc1 [compound 16]
0

Look up Mortalité en 1 heure: CC(CN(C)C)CN1c2ccccc2-c2onc(-c3ccccc3)c2-c2ccccc21 (centres unmarked) [compound 19]
0

Look up Mortalité en 1 heure: c1ccc(C2=NOC3c4ccccc4Nc4ccccc4C23)cc1 (centres unmarked) [compound 1]
0

Look up Mortalité en 1 heure: CN(C)CCCN1c2ccccc2-c2onc(-c3ccccc3)c2-c2ccccc21 [compound 18]
0

Look up Mortalité en 1 heure: CN(C)CCCN1c2ccccc2C2C(c3ccccc3)=NN(c3ccccc3)C2c2ccccc21 (centres unmarked) [compound 8]
0

Look up Mortalité en 1 heure: CC(CN(C)C)CN1c2ccccc2-c2c(-c3ccccc3)nn(-c3ccccc3)c2-c2ccccc21 (centres unmarked) [compound 15]
0

Look up Mortalité en 1 heure: CN(C)CCCN1c2ccccc2-c2c(-c3ccccc3)nn(-c3ccccc3)c2-c2ccccc21 [compound 14]
0

Look up Mortalité en 1 heure: CC(CN(C)C)CN1c2ccccc2C2ON=C(c3ccccc3)C2c2ccccc21 (centres unmarked) [compound 4]
0

----------
System: souris femelles
Experimental Protocol: acute toxicity in the mouse, intraperitoneal
Format: in vivo
Conditions: voie intrapéritonéale, 50 mg/kg; dead mice of the group
Assay Readout: Mortalité en 1 heure
The answer should be written as a number, with no unit following it.

Look up Mortalité en 1 heure: c1ccc(-c2noc3c2-c2ccccc2Nc2ccccc2-3)cc1 [compound 16]
0

Look up Mortalité en 1 heure: CC(CN(C)C)CN1c2ccccc2-c2c(-c3ccccc3)nn(-c3ccccc3)c2-c2ccccc21 (stereo not shown) [compound 15]
0

Look up Mortalité en 1 heure: CN(C)CCN1c2ccccc2-c2onc(-c3ccccc3)c2-c2ccccc21 [compound 17]
0

Look up Mortalité en 1 heure: CN(C)CCN1c2ccccc2-c2c(-c3ccccc3)nn(-c3ccccc3)c2-c2ccccc21 [compound 13]
0

Look up Mortalité en 1 heure: CN(C)CCN1c2ccccc2C2ON=C(c3ccccc3)C2c2ccccc21 (stereo not shown) [Composé 2]
0

Look up Mortalité en 1 heure: CN(C)CCCN1c2ccccc2C2C(c3ccccc3)=NN(c3ccccc3)C2c2ccccc21 (stereo not shown) [compound 8]
0

Look up Mortalité en 1 heure: CN(C)CCCN1c2ccccc2-c2onc(-c3ccccc3)c2-c2ccccc21 [compound 18]
0

Look up Mortalité en 1 heure: CN(C)CCCN1c2ccccc2C=Cc2ccccc21 [compound 21, reference compound]
0

Look up Mortalité en 1 heure: CN(C)CCCN1c2ccccc2-c2c(-c3ccccc3)nn(-c3ccccc3)c2-c2ccccc21 [compound 14]
0

Look up Mortalité en 1 heure: CC(CN(C)C)CN1c2ccccc2C=Cc2ccccc21 (stereo not shown) [compound 22, reference compound]
0

Look up Mortalité en 1 heure: CC(CN(C)C)CN1c2ccccc2-c2onc(-c3ccccc3)c2-c2ccccc21 (stereo not shown) [compound 19]
0

Look up Mortalité en 1 heure: c1ccc(C2=NOC3c4ccccc4Nc4ccccc4C23)cc1 (stereo not shown) [compound 1]
0

Look up Mortalité en 1 heure: CN(C)CCN1c2ccccc2C=Cc2ccccc21 [compound 20, reference compound]
0

----------
Experimental Protocol: acute toxicity in the mouse, intraperitoneal
Format: in vivo, Souris
Conditions: mouse, in vivo, ip; voie intrapéritonéale, 5 mg/kg; read-out: Mortalité %
Assay Readout: mortality at 48 h (%)
Unit % implied. Number only.

Look up mortality at 48 h: CN(C)CCCN1c2ccccc2C2C(c3ccccc3)=NN(c3ccccc3)C2c2ccccc21 (stereo not shown) [compound 8]
0

----------
Test system: souris femelles
Experimental Protocol: acute toxicity in the mouse, intraperitoneal
Assay type: in vivo
Conditions: voie intrapéritonéale, 250 mg/kg; dead mice of the group
Assay Readout: Mortalité en 48 h.
The answer should be written as a number, with no unit following it.

Give the reported Mortalité en 48 h. for CN(C)CCCN1c2ccccc2C2ON=C(c3ccccc3)C2c2ccccc21 (stereo not shown) [compound 3] (system: souris femelles).
5

Give the reported Mortalité en 48 h. for c1ccc(-c2nn(-c3ccccc3)c3c2-c2ccccc2Nc2ccccc2-3)cc1 [compound 12] (system: souris femelles).
0

Give the reported Mortalité en 48 h. for CC(CN(C)C)CN1c2ccccc2-c2c(-c3ccccc3)nn(-c3ccccc3)c2-c2ccccc21 (stereo not shown) [compound 15] (system: souris femelles).
4

Give the reported Mortalité en 48 h. for CN(C)CCN1c2ccccc2-c2c(-c3ccccc3)nn(-c3ccccc3)c2-c2ccccc21 [compound 13] (system: souris femelles).
0

----------
For each of the compounds below, state its mortality at 48 h.
Experimental Protocol: acute toxicity in the mouse, intraperitoneal
Format: in vivo, Souris
Conditions: mouse, in vivo, ip; voie intrapéritonéale, 100 mg/kg; read-out: Mortalité %
Unit % implied. Number only.

Look up mortality at 48 h: "CN(C)CCN1c2ccccc2-c2c(-c3ccccc3)nn(-c3ccccc3)c2-c2ccccc21"
0

Look up mortality at 48 h: CN(C)CCN1c2ccccc2C=Cc2ccccc21 [compound 20, reference compound]
60

Look up mortality at 48 h: CN(C)CCCN1c2ccccc2C2C(c3ccccc3)=NN(c3ccccc3)C2c2ccccc21 (centres unmarked)
0

Look up mortality at 48 h: CC(CN(C)C)CN1c2ccccc2C=Cc2ccccc21 (centres unmarked) [compound 22, reference compound]
100

Look up mortality at 48 h: CC(CN(C)C)CN1c2ccccc2-c2onc(-c3ccccc3)c2-c2ccccc21 (centres unmarked)
0

Look up mortality at 48 h: CN(C)CCN1c2ccccc2C2ON=C(c3ccccc3)C2c2ccccc21 (centres unmarked)
60

Look up mortality at 48 h: "c1ccc(-c2noc3c2-c2ccccc2Nc2ccccc2-3)cc1"
0

Look up mortality at 48 h: "CN(C)CCCN1c2ccccc2-c2onc(-c3ccccc3)c2-c2ccccc21"
0

Look up mortality at 48 h: "CN(C)CCN1c2ccccc2-c2onc(-c3ccccc3)c2-c2ccccc21"
0

Look up mortality at 48 h: c1ccc(C2=NOC3c4ccccc4Nc4ccccc4C23)cc1 (centres unmarked)
0

Look up mortality at 48 h: CC(CN(C)C)CN1c2ccccc2-c2c(-c3ccccc3)nn(-c3ccccc3)c2-c2ccccc21 (centres unmarked)
0

Look up mortality at 48 h: CC(CN(C)C)CN1c2ccccc2C2ON=C(c3ccccc3)C2c2ccccc21 (centres unmarked)
0

Look up mortality at 48 h: CN(C)CCCN1c2ccccc2C2ON=C(c3ccccc3)C2c2ccccc21 (centres unmarked)
0

Look up mortality at 48 h: "CN(C)CCCN1c2ccccc2-c2c(-c3ccccc3)nn(-c3ccccc3)c2-c2ccccc21"
0

----------
For each of the compounds below, state its mortality at 48 h.
Experimental Protocol: acute toxicity in the mouse, intraperitoneal
Format: in vivo, Souris
Conditions: mouse, in vivo, ip; voie intrapéritonéale, 300 mg/kg; read-out: Mortalité %
Unit % implied. Number only.

Look up mortality at 48 h: CC(CN(C)C)CN1c2ccccc2C2ON=C(c3ccccc3)C2c2ccccc21 (stereo not drawn) [compound 4]
100

Look up mortality at 48 h: CC(CN(C)C)CN1c2ccccc2C2C(c3ccccc3)=NN(c3ccccc3)C2c2ccccc21 (stereo not drawn) [compound 9]
0

Look up mortality at 48 h: CC(CN(C)C)CN1c2ccccc2-c2c(-c3ccccc3)nn(-c3ccccc3)c2-c2ccccc21 (stereo not drawn) [compound 15]
80
